target: recombinant human MASP2 (amino acids 297-686, C-terminal His Tag) (human, UniProt O00187 297-686); assay: cell-based or functional assay
Sequence (O00187 other isoform, or with tags, fused parts or gaps limits assumed): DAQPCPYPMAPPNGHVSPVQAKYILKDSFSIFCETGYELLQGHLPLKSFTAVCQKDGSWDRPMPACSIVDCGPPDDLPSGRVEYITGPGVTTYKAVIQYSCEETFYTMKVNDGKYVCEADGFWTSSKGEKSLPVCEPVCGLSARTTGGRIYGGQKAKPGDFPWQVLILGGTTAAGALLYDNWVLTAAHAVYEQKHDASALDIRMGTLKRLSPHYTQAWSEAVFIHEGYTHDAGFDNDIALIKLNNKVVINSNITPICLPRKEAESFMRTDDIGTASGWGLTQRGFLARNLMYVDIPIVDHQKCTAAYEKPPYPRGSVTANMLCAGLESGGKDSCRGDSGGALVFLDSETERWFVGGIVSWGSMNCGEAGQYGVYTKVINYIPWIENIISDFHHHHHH
Bridges are numbered along the chain shown (N, C = ends). Where no end group is shown, it is not given here. [ ]: non-standard residue; d: D form. Oic = O=C(O)[C@@H]1C[C@@H]2CCCC[C@@H]2N1; tBuAla = CC(C)(C)C[C@H](N)C(=O)O; Pen = CC(C)(S)[C@H](N)C(=O)O; Dab = NCC[C@H](N)C(=O)O; Abu = CC[C@H](N)C(=O)O; Dap = NC[C@H](N)C(=O)O; Ahx = NCCCCCC(=O)O
readoutName: human MASP2 IC50 (nM)

binder="cyclo([Dab]ICSRS[tBuAla]PPI[Pen]IP) (disulfide 3-11; also: TFA salt) [Example 56: (Dab)**-IC+SRS-((tBu)A)-PPI-(Pen)+-IP**]" unitssymbol=nM measured=1100
binder="[Ahx]GICSRSLP[Oic]I[Pen]IPE-NH2 (disulfide 4-12; lactam N-15; also: TFA salt) [Example 83: (Ahx)**-GIC+SRSLP-(Oic)-I-(Pen)+-IPE++-NH2]" unitssymbol=nM measured=91
binder="[Dap]GGICSRSLPPICIPD (lactam 1-C; disulfide 5-13; also: TFA salt) [Example 20: (Dap)++-GGIC+SRSLPPIC+IPD**]" unitssymbol=nM measured=110

a. EGICSRSLP[Oic]I[Pen]IPK-NH2 (lactam 1-15; disulfide 4-12; also: TFA salt) [Example 90: E++GIC+SRSLP-(Oic)-I-(Pen)+-IPK++-NH2]
b. cyclo([Ahx][Abu]ICSRS[tBuAla]PPI[Pen]IPD) (disulfide 4-12; also: TFA salt) [Example 38: (Ahx)**-(Abu)-IC+SRS-((tBu)A)-PPI-(Pen)+-IPD**]
Challenge: Which entry shows the lesser value of human MASP2 IC50 here, a or b ? Record your answer as the label of the chosen record.
Response given: b
